System: HepG2
Experiment: Antiproliferative activity against human HepG2 cells assessed as reduction in cell viability after 72 hrs by MTT assay
Conditions: HepG2, 72 h
quantityKind: IC50 (µM)
Could you give me the number in µM? Just the number is fine.

Below: 2 compounds and their reported IC50.
| compound | IC50 [µM] |
| --- | --- |
| C=C1C(=O)[C@]23[C@H](O)[C@H]1CC[C@H]2[C@@]12CO[C@]3(O)[C@@H](O)[C@@H]1C(C)(C)CC[C@@H]2O [ORIDONIN] | 8.95 |
| C=C1C(=O)[C@]23[C@H](OC(=O)CCCC(=O)OCCOc4ccc(-c5cc(=S)ss5)cc4)[C@H]1CC[C@H]2[C@@]12CO[C@@]3(O)[C@@H](O)[C@@H]1C(C)(C)CC[C@@H]2OC(C)=O | 4.78 |

Consider the compound shown here: C=C1C(=O)[C@]23[C@H](O)[C@H]1CC[C@H]2[C@@]12CO[C@@]3(O)[C@@H](O)[C@@H]1C(C)(C)CCC2=O What is its recorded IC50?
10.5

* * *

Tested on: HCT-116
Test: Antiproliferative activity against human HCT-116 cells assessed as reduction in cell viability after 72 hrs by MTT assay
Conditions: HCT-116, 72 h
Measured IC50, listed per entry for reference.

| molecularString | testedTarget | IC50 |
| --- | --- | --- |
| C=C1C(=O)[C@]23[C@H](O)[C@H]1CC[C@H]2[C@@]12CO[C@@]3(O)[C@@H](O)[C@@H]1C(C)(C)CCC2=O | HCT-116 | 10.7 µM |

Which measured IC50 value corresponds to C=C1C(=O)[C@]23[C@H](OC(=O)CCC(=O)OCCCOc4ccc(-c5cc(=S)ss5)cc4)[C@H]1CC[C@H]2[C@@]12CO[C@@]3(O)[C@@H](O)[C@@H]1C(C)(C)CCC2=O ?
14 µM

Which IC50 reading was recorded for the molecule C=C1C(=O)[C@]23[C@H](OC(=O)CCC(=O)OCCCOc4ccc(-c5cc(=S)ss5)cc4)[C@H]1CC[C@H]2[C@@]12CO[C@@]3(O)[C@@H](O)[C@@H]1C(C)(C)CC[C@@H]2O ?
27.5 µM

Which IC50 value is on record for C=C1C(=O)[C@]23[C@H](OC(=O)CCCC(=O)OCCOc4ccc(-c5cc(=S)ss5)cc4)[C@H]1CC[C@H]2[C@@]12CO[C@@]3(O)[C@@H](O)[C@@H]1C(C)(C)CC[C@@H]2OC(C)=O ?
> 50 µM

* * *

System: MCF7
Test: Antiproliferative activity against human MCF7 cells assessed as reduction in cell viability after 72 hrs by MTT assay
Conditions: MCF7, 72 h
quantityKind: IC50 (µM)
Please reply with the bare figure in µM and do not write the unit itself.

Consider the worked cases shown below.
| compound | quantityKind | observedMeasurement |
| --- | --- | --- |
| C=C1C(=O)[C@]23[C@H](OC(=O)CCCC(=O)OCCCOc4ccc(-c5cc(=S)ss5)cc4)[C@H]1CC[C@H]2[C@@]12CO[C@@]3(O)[C@@H](O)[C@@H]1C(C)(C)CC[C@@H]2OC(C)=O | IC50 | 15.8 |
| C=C1C(=O)[C@]23[C@H](OC(=O)CCC(=O)OCCOc4ccc(-c5cc(=S)ss5)cc4)[C@H]1CC[C@H]2[C@@]12CO[C@@]3(O)[C@@H](O)[C@@H]1C(C)(C)CC[C@@H]2OC(C)=O | IC50 | 24.7 |
| C=C1C(=O)[C@]23[C@H](O)[C@H]1CC[C@H]2[C@@]12CO[C@@]3(O)[C@@H](O)[C@@H]1C(C)(C)CC[C@@H]2OC(C)=O [LASIOKAURIN] | IC50 | 19.8 |
| C=C1C(=O)[C@]23[C@H](O)[C@H]1CC[C@H]2[C@@]12CO[C@@]3(O)[C@@H](O)[C@@H]1C(C)(C)CCC2=O | IC50 | 15.4 |

Report IC50 for C=C1C(=O)[C@]23[C@H](OC(=O)CCC(=O)OCCCOc4ccc(-c5cc(=S)ss5)cc4)[C@H]1CC[C@H]2[C@@]12CO[C@@]3(O)[C@@H](O)[C@@H]1C(C)(C)CC[C@@H]2OC(C)=O tested on MCF7.
20.8

* * *

System: HepG2
Experiment: Antiproliferative activity against human HepG2 cells assessed as reduction in cell viability after 72 hrs by MTT assay
Conditions: HepG2, 72 h
quantityKind: pIC50
The read-out pIC50 is expressed as -log10 of concentration in moles per litre.

| compound | testedTarget | pIC50 |
| --- | --- | --- |
| C=C1C(=O)[C@]23[C@H](OC(=O)CCCC(=O)OCCCOc4ccc(-c5cc(=S)ss5)cc4)[C@H]1CC[C@H]2[C@@]12CO[C@@]3(O)[C@@H](O)[C@@H]1C(C)(C)CC[C@@H]2O | HepG2 | 5.23 |
| C=C1C(=O)[C@]23[C@H](OC(=O)CCCC(=O)OCCOc4ccc(-c5cc(=S)ss5)cc4)[C@H]1CC[C@H]2[C@@]12CO[C@@]3(O)[C@@H](O)[C@@H]1C(C)(C)CCC2=O | HepG2 | 5.12 |
| C=C1C(=O)[C@]23[C@H](OC(=O)CCC(=O)OCCCOc4ccc(-c5cc(=S)ss5)cc4)[C@H]1CC[C@H]2[C@@]12CO[C@@]3(O)[C@@H](O)[C@@H]1C(C)(C)CC[C@@H]2OC(C)=O | HepG2 | 5.20 |
| C=C1C(=O)[C@]23[C@H](OC(=O)CCC(=O)OCCCCCCOc4ccc(-c5cc(=S)ss5)cc4)[C@H]1CC[C@H]2[C@@]12CO[C@@]3(O)[C@@H](O)[C@@H]1C(C)(C)CCC2=O | HepG2 | 4.98 |
| C=C1C(=O)[C@]23[C@H](O)[C@H]1CC[C@H]2[C@@]12CO[C@@]3(O)[C@@H](O)[C@@H]1C(C)(C)CC[C@@H]2OC(C)=O [LASIOKAURIN] | HepG2 | 4.92 |
| O=c1[nH]cc(F)c(=O)[nH]1 [FLUOROURACIL] | HepG2 | 4.49 |

Return reported pIC50; argument: C=C1C(=O)[C@]23[C@H](OC(=O)CCC(=O)OCCOc4ccc(-c5cc(=S)ss5)cc4)[C@H]1CC[C@H]2[C@@]12CO[C@@]3(O)[C@@H](O)[C@@H]1C(C)(C)CCC2=O
5.12

If you can, please state the reported pIC50 value of C=C1C(=O)[C@]23[C@H](OC(=O)CCCC(=O)OCCCCCCO[C@H]4CCC(C)(C)[C@H]5[C@H](O)[C@]6(O)OC[C@@]45[C@@H]4CC[C@H]5C(=C)C(=O)[C@]46[C@@H]5OC(=O)CCCC(=O)OCCCCCCOc4ccc(-c5cc(=S)ss5)cc4)[C@H]1CC[C@H]2[C@@]12CO[C@@]3(O)[C@@H](O)[C@@H]1C(C)(C)CC[C@@H]2O .
5.00

Fill in: pIC50 of C=C1C(=O)[C@]23[C@H](OC(=O)CCCC(=O)OCCCCCCOc4ccc(-c5cc(=S)ss5)cc4)[C@H]1CC[C@H]2[C@@]12CO[C@@]3(O)[C@@H](O)[C@@H]1C(C)(C)CC[C@@H]2OC(C)=O is ___
4.81

Give its pIC50 value. Item: C=C1C(=O)[C@]23[C@H](OC(=O)CCC(=O)OCCCCCCOc4ccc(-c5cc(=S)ss5)cc4)[C@H]1CC[C@H]2[C@@]12CO[C@@]3(O)[C@@H](O)[C@@H]1C(C)(C)CC[C@@H]2OC(C)=O
5.59

May I ask what pIC50 has been recorded for C=C1C(=O)[C@]23[C@H](OC(=O)CCC(=O)OCCCOc4ccc(-c5cc(=S)ss5)cc4)[C@H]1CC[C@H]2[C@@]12CO[C@@]3(O)[C@@H](O)[C@@H]1C(C)(C)CCC2=O ?
5.30

Any idea what its pIC50 is? The compound is C=C1C(=O)[C@]23[C@H](OC(=O)CCC(=O)OCCOc4ccc(-c5cc(=S)ss5)cc4)[C@H]1CC[C@H]2[C@@]12CO[C@@]3(O)[C@@H](O)[C@@H]1C(C)(C)CC[C@@H]2O
5.27

Bench note: what pIC50 did C=C1C(=O)[C@]23[C@H](OC(=O)CCCC(=O)OCCCOc4ccc(-c5cc(=S)ss5)cc4)[C@H]1CC[C@H]2[C@@]12CO[C@@]3(O)[C@@H](O)[C@@H]1C(C)(C)CCC2=O show?
5.59

Fill in: pIC50 of C=C1C(=O)[C@]23[C@H](OC(=O)CCCC(=O)OCCOc4ccc(-c5cc(=S)ss5)cc4)[C@H]1CC[C@H]2[C@@]12CO[C@@]3(O)[C@@H](O)[C@@H]1C(C)(C)CC[C@@H]2O is ___
5.18
